Molecular target: T1, PD1 extracellular domain, without fusion to other proteins (human, UniProt Q15116 25-170)
T1 construct: extracellular domain; also called unfused PD1; monomeric PD1
T1 sequence (Q15116 25-170): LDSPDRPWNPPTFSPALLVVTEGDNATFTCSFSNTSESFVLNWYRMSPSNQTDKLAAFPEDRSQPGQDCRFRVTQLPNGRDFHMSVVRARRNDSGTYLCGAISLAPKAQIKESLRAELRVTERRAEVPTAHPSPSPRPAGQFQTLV
Experiment: ELISA, plate coated with PD1 extracellular domain without Fc fusion, OD405
measure: binding result

binder: M2-4 (antibody, V domains shown, Expressed as human IgG4/kappa; 6xHis tag at the C-terminus of the Fc for ELISA) VH: QVQLVESGGDVVQPGGSLRLSCAASGVAFRNYGMHWVRQAPGKGLEWVAIIWYDGSNKYYADSVKGRFTISRDNSKNMLYLQMNSLRAEDTAMYYCARLSIGTTHYFDTDDYWGQGTSVTVSS VL: EIVLTQSPATLSLSPGERATLSCRASQSVSSYLAWYQQKVGQAPRLIIFDASNRATGIPARFSGSGSGTDFTLTITSLDPEDFAVYYCQQRSAWPLTFGGGTKVEIR
reported-measurement: binds
//
binder: M1-2 (antibody, V domains shown, Expressed as human IgG4/kappa in 293F or Expi293 cells; also called 319-9-15) VH: QVQLVESGGDVVQPGGSLRLSCAASGVAFSDYGMEWVRQAPGKGLEWLAVIWYDGSRKHYADSVKGRFTISRDNSKNILYLQMNSLRAEDTAMYYCARCHSKDDYWGQGTLVTVSS VL: EIVLTQFPATLSLSPGERATLSCRTSQNIDSDLAWFQQKPGQAPRLIIYDASNRATGIPARFSGGGSGTDFTLTITSLEPEDFAVYYCQQRTTWPLTFGGGTKVEIK
reported-measurement: binds
